assay: Half life in dog liver microsomes measured upto 30 min in presence of NADPH by HPLC analysis; type: ADME, Canis lupus familiaris, Microsome
This section presents molecules with their documented half-life values.
Field: numeric (min). Do not append units.

Some entries whose results are on file:
> print(dat)
                               given.smiles  numeric.result
1  CCCC(=O)OCOC(=O)c1c(F)ccc2c1OB(O)[C@@H]1C[C@H]21              11
2  CC(=O)OCOC(=O)c1c(F)ccc2c1OB(O)[C@@H]1C[C@H]21              15

Please turn your attention to the following entry.
[ask] Provide half-life value for the following molecule: `CC(C)C(=O)OCOC(=O)c1c(F)ccc2c1OB(O)[C@@H]1C[C@H]21`
[reply] 23

====

experiment: Solubility of the compound in FeSSIF using crystalline sample; format: physicochemical
endpoint label: solubility thermodynamic

[ask] Hello, please tell me recorded solubility thermodynamic for this one: `CC(C)C(=O)OCOC(=O)c1c(F)ccc2c1O[B-](O)(O)[C@@H]1C[C@H]21.[Na+]`
[reply] > 100 mg/mL

====

assay: Oral bioavailability in rat at 30 mg/kg by LC/MS/MS analysis; type: ADME, organism-based; conditions: in vivo
endpoint label: bioavailability (%)
# output: bare number, implied unit %

> print(dat)
                               given.smiles  numeric.result
1  CC(C)C(=O)OCOC(=O)c1c(F)ccc2c1OB(O)[C@@H]1C[C@H]21             125

[ask] Fill in reported bioavailability for this entry: `CCCC(=O)OCOC(=O)c1c(F)ccc2c1OB(O)[C@@H]1C[C@H]21`
[reply] 145

[ask] Supply recorded bioavailability for `CC(=O)OCOC(=O)c1c(F)ccc2c1OB(O)[C@@H]1C[C@H]21` here.
[reply] 131

====

assay: Half life in human liver microsomes measured upto 30 min in presence of NADPH by HPLC analysis; type: ADME, Microsome
// Not fulfilled strictly below 20 min in half-life; Fulfilled otherwise

The examples below pair each entry with its known result.
> print(dat)
                               given.smiles   category
1  O=C(OCOC(=O)c1c(F)ccc2c1OB(O)[C@@H]1C[C@H]21)OC1CCOCC1  Fulfilled
2  CC(=O)OCCOC(=O)OCOC(=O)c1c(F)ccc2c1OB(O)[C@@H]1C[C@H]21  Fulfilled
3  Cc1oc(=O)oc1COC(=O)c1c(F)ccc2c1OB(O)[C@@H]1C[C@H]21  Fulfilled

[ask] Kindly determine if half-life recorded for `CC(=O)N1CCC[C@@H]1C(=O)OCOC(=O)c1c(F)ccc2c1OB(O)[C@@H]1C[C@H]21` is above or exactly 20 min.
[reply] Fulfilled

[ask] Is half-life at least 20 min? Consider `O=C(OCOC(=O)c1c(F)ccc2c1OB(O)[C@@H]1C[C@H]21)OC1COC1`
[reply] Fulfilled

[ask] Quick check, half-life >= 20 min? `O=C(OCOC(=O)C1CC1)c1c(F)ccc2c1OB(O)[C@@H]1C[C@H]21`
[reply] Not fulfilled

[ask] Quick check, half-life >= 20 min? `CC(C)C(=O)OCOC(=O)c1c(F)ccc2c1OB(O)[C@@H]1C[C@H]21`
[reply] Not fulfilled

====

assay: Half life in rat liver microsomes measured upto 30 min in presence of NADPH by HPLC analysis; type: ADME, Microsome
endpoint label: half-life (min)
Give your result in min as a bare value.

Example entries and their recorded answers appear below.
> print(dat)
                               given.smiles  unit.of.measurement  numeric.result
1  CC(C)C(=O)OCOC(=O)c1c(F)ccc2c1OB(O)[C@@H]1C[C@H]21                  min               5
2  CC(=O)OCOC(=O)c1c(F)ccc2c1OB(O)[C@@H]1C[C@H]21                  min               3

Please examine the following record next.
[ask] Please give the documented half-life of `CCCC(=O)OCOC(=O)c1c(F)ccc2c1OB(O)[C@@H]1C[C@H]21`
[reply] 3
